Parameter: normalised response. Scope: all listed entries.
System: CAL-148
Assay: normalised response (% of control), CellTiter-Glo; higher = more viable cells (100 = DMSO, 0 = benzethonium chloride kill control)
Details: incubation time: 72 h
value kind: normalised response

COc1cc(Nc2c(C#N)cnc3cc(OCCCN4CCN(C)CC4)c(OC)cc23)c(Cl)cc1Cl [Bosutinib] (10000 nM) ... 33.3%
C=CCN(/C=C1/C(=O)O[C@H](COC)[C@@]2(C)C1=C(O)C(=O)C1=C2[C@H](OC(C)=O)C[C@]2(C)C(=O)CC[C@@H]12)CC=C [Sonolisib] (10000 nM) ... 124%
CO[C@@]12[C@H](COC(N)=O)C3=C(C(=O)C(C)=C(N)C3=O)N1C[C@@H]1N[C@@H]12 [Mitomycin C] (10000 nM) ... 51%
Cn1cc(C2=C(c3cn(C4CCN(Cc5ccccn5)CC4)c4ccccc34)C(=O)NC2=O)c2ccccc21 [Enzastaurin] (10000 nM) ... 107%
O=[N+]([O-])c1ccc2c(c1)S(=O)(=O)C=C2 [Stattic] (50000 nM) ... 0.45%
CNC(=O)c1ccccc1Sc1ccc2c(/C=C/c3ccccn3)n[nH]c2c1 [Axitinib] (10000 nM) ... 67%

----------
Tested on: CAL-148
Experiment: normalised viability (% of control), CellTiter-Blue; higher = more viable cells (about 100 = DMSO control)
Details: incubation time: 72 h
value kind: normalised viability (%)

CN(Cc1cnc2nc(N)nc(N)c2n1)c1ccc(C(=O)N[C@@H](CCC(=O)O)C(=O)O)cc1 [Methotrexate] (1000 nM) ... 67.8
COc1c2occc2cc2ccc(=O)oc12 [Methoxsalen] (1000 nM) ... 106
CO[C@@]12[C@H](COC(N)=O)C3=C(C(=O)C(C)=C(N)C3=O)N1C[C@@H]1N[C@@H]12 [Mitomycin C] (1000 nM) ... 96.3
Nc1ccn([C@@H]2O[C@H](CO)[C@@H](O)C2(F)F)c(=O)n1 [Gemcitabine] (100 nM) ... 33.7
C=CCn1c(=O)c2cnc(Nc3ccc(N4CCN(C)CC4)cc3)nc2n1-c1cccc(C(C)(C)O)n1 [MK1775] (1000 nM) ... 9.04
CNC(=O)c1ccccc1Sc1ccc2c(/C=C/c3ccccn3)n[nH]c2c1 [Axitinib] (1000 nM) ... 97.5
COc1cc(Nc2c(C#N)cnc3cc(OCCCN4CCN(C)CC4)c(OC)cc23)c(Cl)cc1Cl [Bosutinib] (1000 nM) ... 72
CCNC(=O)CCC/C=C\C[C@@H]1[C@@H](/C=C/[C@@H](O)CCc2ccccc2)[C@H](O)C[C@@H]1O [Bimatoprost] (550 nM) ... 95.9
CC(C)C[C@H](NC(=O)[C@@H](COC(C)(C)C)NC(=O)[C@H](Cc1ccc(O)cc1)NC(=O)[C@H](CO)NC(=O)[C@H](Cc1c[nH]c2ccccc12)NC(=O)[C@H](Cc1cnc[nH]1)NC(=O)[C@@H]1CCC(=O)N1)C(=O)N[C@@H](CCCNC(=N)N)C(=O)N1CCC[C@H]1C(=O)NNC(N)=O [Goserelin] (1000 nM) ... 97.1

----------
Test system: DU-4475
Assay: drug sensitivity score (DSS), CellTiter-Blue viability (DSS (AUC-based score)); higher = stronger viability inhibition; extreme values may be limits of the assay
Details: incubation time: 72 h
value kind: drug sensitivity score

Cn1cc(C2=C(c3cn(C4CCN(Cc5ccccn5)CC4)c4ccccc34)C(=O)NC2=O)c2ccccc21 ... 0
Nc1ccn([C@@H]2O[C@H](CO)[C@@H](O)C2(F)F)c(=O)n1 ... 10.7
Cc1cc(Nc2nc(N[C@@H](C)c3ncc(F)cn3)ncc2Cl)[nH]n1 ... 0.841
CC[C@H](CO)Nc1nc(NCc2ccccc2)c2ncn(C(C)C)c2n1 ... 0
COc1ccc(S(=O)(=O)Nc2cccnc2Nc2ccc(O)cc2)cc1 ... 10.1
CCN(CC)CCCC(C)Nc1ccnc2cc(Cl)ccc12 (stereo not drawn) ... 0
C=CCn1c(=O)c2cnc(Nc3ccc(N4CCN(C)CC4)cc3)nc2n1-c1cccc(C(C)(C)O)n1 ... 15
CO[C@@]12[C@H](COC(N)=O)C3=C(C(=O)C(C)=C(N)C3=O)N1C[C@@H]1N[C@@H]12 ... 3.3

----------
System: HCC1599
Details: 72 h
value kind: EC50, CellTiter-Blue viability (µM)

CO[C@@]12[C@H](COC(N)=O)C3=C(C(=O)C(C)=C(N)C3=O)N1C[C@@H]1N[C@@H]12 ... 1.37
CC(=O)[C@]1(O)Cc2c(O)c3c(c(O)c2[C@@H](O[C@H]2C[C@H](N)[C@H](O)[C@H](C)O2)C1)C(=O)c1ccccc1C3=O ... 0.945
O=C(CCCCCCC(=O)Nc1ccccc1)NO ... 3.27
CC[C@H](CO)Nc1nc(NCc2ccccc2)c2ncn(C(C)C)c2n1 ... 2.29

----------
Tested on: MDA-MB-453
Assay: drug sensitivity score (DSS), CellTiter-Blue viability (DSS (AUC-based score)); higher = stronger viability inhibition; extreme values may be limits of the assay
Conditions: incubation time: 72 h
# drug sensitivity score listing for each entry below
value kind: drug sensitivity score

CC[C@H](CO)Nc1nc(NCc2ccccc2)c2ncn(C(C)C)c2n1 ... 0
CO[C@@H]1[C@H](N(C)C(=O)c2ccccc2)C[C@H]2O[C@]1(C)n1c3ccccc3c3c4c(c5c6ccccc6n2c5c31)C(=O)NC4 ... 7.82
CC(=O)[C@]1(O)Cc2c(O)c3c(c(O)c2[C@@H](O[C@H]2C[C@H](N)[C@H](O)[C@H](C)O2)C1)C(=O)c1ccccc1C3=O ... 4.55
CC(C)(C)NC(=O)[C@H]1CC[C@H]2[C@@H]3CC[C@H]4NC(=O)C=C[C@]4(C)[C@H]3CC[C@]12C [Finasteride] ... 1.81
COc1c2occc2cc2ccc(=O)oc12 ... 1.68
CN(Cc1cnc2nc(N)nc(N)c2n1)c1ccc(C(=O)N[C@@H](CCC(=O)O)C(=O)O)cc1 [Methotrexate] ... 0
Cc1cn(-c2cc(NC(=O)c3ccc(C)c(Nc4nccc(-c5cccnc5)n4)c3)cc(C(F)(F)F)c2)cn1 ... 0
Nc1ccn([C@@H]2O[C@H](CO)[C@@H](O)C2(F)F)c(=O)n1 ... 11
C=CCn1c(=O)c2cnc(Nc3ccc(N4CCN(C)CC4)cc3)nc2n1-c1cccc(C(C)(C)O)n1 ... 15.1
C=CCN(/C=C1/C(=O)O[C@H](COC)[C@@]2(C)C1=C(O)C(=O)C1=C2[C@H](OC(C)=O)C[C@]2(C)C(=O)CC[C@@H]12)CC=C ... 0

----------
Form field: normalised response (one value per entry).
Tested on: MDA-MB-231
Experiment: normalised response (% of control), CellTiter-Glo; higher = more viable cells (100 = DMSO, 0 = benzethonium chloride kill control)
Conditions: incubation time: 72 h
value kind: normalised response (%)

C/C(=C\c1csc(C)n1)[C@@H]1C[C@@H]2O[C@]2(C)CCC[C@H](C)[C@H](O)[C@@H](C)C(=O)C(C)(C)[C@@H](O)CC(=O)N1 [Ixabepilone] (1000 nM) ... 73.8
COc1ccc(S(=O)(=O)Nc2cccnc2Nc2ccc(O)cc2)cc1 [ABT-751] (10000 nM) ... 46.6
O=[N+]([O-])c1ccc2c(c1)S(=O)(=O)C=C2 [Stattic] (50000 nM) ... -0.2
CC(C)n1cnc2c(NCCc3ccc(O)cc3)nc(-c3csc4ccccc34)nc21 [StemRegenin 1] (10000 nM) ... 85.3
C=CCN(/C=C1/C(=O)O[C@H](COC)[C@@]2(C)C1=C(O)C(=O)C1=C2[C@H](OC(C)=O)C[C@]2(C)C(=O)CC[C@@H]12)CC=C [Sonolisib] (10000 nM) ... 87.3
CO[C@@H]1[C@H](N(C)C(=O)c2ccccc2)C[C@H]2O[C@]1(C)n1c3ccccc3c3c4c(c5c6ccccc6n2c5c31)C(=O)NC4 [Midostaurin] (10000 nM) ... 40.7
CN(C)C(=N)NC(=N)N [Metformin] (100000 nM) ... 91.2

----------
Collected normalised response values appear next to each entry.
Tested on: MDA-MB-436
Experiment: normalised response (% of control), CellTiter-Glo; higher = more viable cells (100 = DMSO, 0 = benzethonium chloride kill control)
Settings: incubation time: 72 h
value kind: normalised response (%)

CC(C)(C)NC(=O)[C@H]1CC[C@H]2[C@@H]3CC[C@H]4NC(=O)C=C[C@]4(C)[C@H]3CC[C@]12C [Finasteride] (1000 nM) ... 108
O=C(O)CNC(=O)c1c(O)c2ccccc2n(Cc2ccccc2)c1=O [IOX-2] (50 nM) ... 96.9
Cc1nc(C(=O)NCC(=O)O)c(O)c2ccc(Oc3ccccc3)cc12 [FG-4592] (1000 nM) ... 100
C=CCn1c(=O)c2cnc(Nc3ccc(N4CCN(C)CC4)cc3)nc2n1-c1cccc(C(C)(C)O)n1 [MK1775] (10 nM) ... 88.6
CCNC(=O)CCC/C=C\C[C@@H]1[C@@H](/C=C/[C@@H](O)CCc2ccccc2)[C@H](O)C[C@@H]1O [Bimatoprost] (550 nM) ... 108
Cn1cc(C2=C(c3cn(C4CCN(Cc5ccccn5)CC4)c4ccccc34)C(=O)NC2=O)c2ccccc21 [Enzastaurin] (1000 nM) ... 109
O=C(CCCCCCC(=O)Nc1ccccc1)NO [Vorinostat] (1 nM) ... 98.3
CN[C@@H](C)C(=O)N[C@H]1CN(C(=O)CC(C)C)CC[C@H]2CC[C@@H](C(=O)NC(c3ccccc3)c3ccccc3)N2C1=O [AT-406] (1000 nM) ... 99.1
CC(=O)[C@]1(O)Cc2c(O)c3c(c(O)c2[C@@H](O[C@H]2C[C@H](N)[C@H](O)[C@H](C)O2)C1)C(=O)c1ccccc1C3=O [Idarubicin] (0.1 nM) ... 112
CC(C)n1cnc2c(NCCc3ccc(O)cc3)nc(-c3csc4ccccc34)nc21 [StemRegenin 1] (10 nM) ... 96.1
Cc1cc(Nc2nc(N[C@@H](C)c3ncc(F)cn3)ncc2Cl)[nH]n1 [AZD1480] (0.1 nM) ... 104
COc1cc(Nc2c(C#N)cnc3cc(OCCCN4CCN(C)CC4)c(OC)cc23)c(Cl)cc1Cl [Bosutinib] (1 nM) ... 96.6
CNC(=O)c1ccccc1Sc1ccc2c(/C=C/c3ccccn3)n[nH]c2c1 [Axitinib] (1 nM) ... 95.3
CC1(COc2ccc3c(c2)ncn3-c2ccc3cccc(N4CCC(N)CC4)c3n2)COC1 [Crenolanib] (10 nM) ... 94.8
CCn1c(C(=O)N(C2CC2)C2CC2)cc2c3c(ncn3C)c(Nc3cc(C)n(C)n3)nc21 (1 nM) ... 97.9
